Taken from paper PMC11530827.

# EXPERIMENTAL_SYSTEM: PbdA (Rhodococcus jostii)
# Sequence (Q0SCI3 1-400): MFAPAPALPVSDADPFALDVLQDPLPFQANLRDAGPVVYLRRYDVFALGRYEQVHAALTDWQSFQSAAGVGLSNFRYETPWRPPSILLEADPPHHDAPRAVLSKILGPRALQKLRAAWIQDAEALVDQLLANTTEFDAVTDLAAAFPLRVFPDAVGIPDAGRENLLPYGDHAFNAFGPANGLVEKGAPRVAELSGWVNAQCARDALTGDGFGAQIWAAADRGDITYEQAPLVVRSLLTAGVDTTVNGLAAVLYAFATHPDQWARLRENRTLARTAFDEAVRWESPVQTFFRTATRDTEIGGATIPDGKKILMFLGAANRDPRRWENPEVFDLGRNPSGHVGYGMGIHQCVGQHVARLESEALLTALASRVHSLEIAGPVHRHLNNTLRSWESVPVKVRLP
# ASSAY_OVERVIEW: Substrate binding to PbdA (WT) by type I spectral shift titration
# Parameters: hexaHis (N, cleaved yes); made in house; host or cells: PbdA: E. coli BL-21 λ (DE3); PbdB: Rhodococcus jostii RHA1
REPORTED_ENDPOINT: Kd (µM)
Numbers only, in µM.

The following molecules each have a reported value; give each one's Kd.
1. COc1ccc(C(=O)O)cc1OC [Veratrate, veratrate]
2. COc1ccc(C=O)cc1

# output
18
11

###

# EXPERIMENTAL_SYSTEM: UniProt:Q0SCI3
# Sequence (Q0SCI3 1-400): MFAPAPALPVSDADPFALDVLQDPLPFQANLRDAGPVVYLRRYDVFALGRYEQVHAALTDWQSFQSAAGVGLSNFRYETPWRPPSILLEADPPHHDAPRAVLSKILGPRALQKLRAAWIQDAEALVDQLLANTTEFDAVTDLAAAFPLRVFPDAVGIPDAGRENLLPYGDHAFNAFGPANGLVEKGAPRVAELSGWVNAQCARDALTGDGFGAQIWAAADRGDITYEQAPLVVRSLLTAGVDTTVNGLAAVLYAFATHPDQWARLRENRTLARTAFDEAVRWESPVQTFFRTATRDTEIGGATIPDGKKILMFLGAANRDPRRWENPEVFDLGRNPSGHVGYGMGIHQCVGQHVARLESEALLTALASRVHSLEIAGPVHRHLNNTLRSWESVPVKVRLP
# CONDITION_PARAMETERS: WT PbdAB; ratio of aromatic turnover rate to NADH oxidation rate
REPORTED_ENDPOINT: Coupling

Solved entries (count: 3):
# input // fetch Coupling given entry COc1ccc(C(=O)O)cc1O [Isovanillate, isovanillate]
# output 75.3 (0.1) %

# input // fetch Coupling given entry COc1ccc(C(=O)O)cc1OC [Veratrate, veratrate]
# output 72 (3) %

# input // fetch Coupling given entry CCc1ccc(C(=O)O)cc1 [p-EB, p-ethylbenzoate]
# output 110 (7) %

New cases:
# input // fetch Coupling given entry COc1ccc(C(=O)O)cc1 [p-MBA, p-methoxybenzoate]
# output 100 (3) %

###

Record form. Attribute: Rate of Aromatic turnover. Fill in for each entry.
# EXPERIMENTAL_SYSTEM: PbdA (Rhodococcus jostii)
# CONDITION_PARAMETERS: WT PbdAB; appearance of O-demethylated product (disappearance of p-EB); SD in parentheses

# input // fetch Rate of Aromatic turnover given entry COc1ccc(C(=O)O)cc1O [Isovanillate, isovanillate]
# output 1600 (100) U mg P450^-1

The following compounds each have a reported value; give each one's Rate of Aromatic turnover.
1. CCc1ccc(C(=O)O)cc1 [p-EB, p-ethylbenzoate]
2. COc1ccc(C(=O)O)cc1OC [Veratrate, veratrate]
3. COc1ccc(C(=O)O)cc1 [p-MBA, p-methoxybenzoate]

# output
900 (100) U mg P450^-1
2030 (60) U mg P450^-1
2700 (200) U mg P450^-1

###

# EXPERIMENTAL_SYSTEM: PbdA R84M (Rhodococcus jostii, UniProt Q0SCI3, R82M)
# Construct: hexaHis (N, cleaved yes); PbdB: Rhodococcus jostii RHA1
# ASSAY_OVERVIEW: Substrate binding to PbdA R84M variant by spectral titration
REPORTED_ENDPOINT: pKd
Numbers only, as −log10 of the molar value.

# input // fetch pKd given entry COc1ccc(C(=O)O)cc1 [p-MBA, p-methoxybenzoate]
# output 4.44

# input // fetch pKd given entry `COc1ccc(C(C)=O)cc1`
# output 5.10

New cases:
# input // fetch pKd given entry `COc1ccc(C=O)cc1`
# output 5.15

###

# EXPERIMENTAL_SYSTEM: PbdA S87A/S237A (Rhodococcus jostii, UniProt Q0SCI3, S235A/S85A)
# Construct: hexaHis (N, cleaved yes); PbdB: Rhodococcus jostii RHA1
# ASSAY_OVERVIEW: Substrate binding to PbdA S87A/S237A variant by spectral titration
Record form. Attribute: Kd. Fill in for each entry.
Numbers only, in µM.

The following compounds each have a reported value; give each one's Kd.
1. COc1ccc(C(=O)O)cc1 [p-MBA, p-methoxybenzoate]
2. COc1ccc(C(C)=O)cc1
3. COc1ccc(C=O)cc1

# output
[70, 8, 8]

###

Record form. Attribute: Kd. Fill in for each entry.
# EXPERIMENTAL_SYSTEM: PbdA (Rhodococcus jostii)
# ASSAY_OVERVIEW: Substrate binding to PbdA (WT) by type I spectral shift titration
# Design: hexaHis (N, cleaved yes); made in house; host or cells: PbdA: E. coli BL-21 λ (DE3); PbdB: Rhodococcus jostii RHA1
# CONDITION_PARAMETERS: WT PbdA; 20 mM Mops, I = 0.1 M, pH 7.2, 25 °C; SD in parentheses; read-out: Kd

Solved entries (count: 3):
# input // fetch Kd given entry COc1ccc(C(=O)O)cc1 [p-MBA, p-methoxybenzoate]
# output 3.8 µM

# input // fetch Kd given entry `COc1ccc(C(C)=O)cc1`
# output 37 µM

# input // fetch Kd given entry COc1ccc(C(=O)O)cc1O [Isovanillate, isovanillate]
# output 90 µM

# context switch: different compound, same Kd
# input // fetch Kd given entry CCc1ccc(C(=O)O)cc1 [p-EB, p-ethylbenzoate]
# output 6 µM

###

# EXPERIMENTAL_SYSTEM: PbdA (Rhodococcus jostii)
# ASSAY_OVERVIEW: Substrate binding to PbdA (WT) by type I spectral shift titration
# Set-up: hexaHis (N, cleaved yes); made in house; host or cells: PbdA: E. coli BL-21 λ (DE3); PbdB: Rhodococcus jostii RHA1
# CONDITION_PARAMETERS: WT PbdA; on substrate binding
Tick true if %High-spin (percent of heme iron in high-spin state) is 70% or greater. Tick false if %High-spin (percent of heme iron in high-spin state) is less than 70%.

Use the examples below as a reference point.
# input Does %High-spin (percent of heme iron in high-spin state) meet or surpass 70% for COc1ccc(C(=O)O)cc1O [Isovanillate, isovanillate] ?
# output true

# input Does %High-spin (percent of heme iron in high-spin state) meet or surpass 70% for `COc1ccc(C=O)cc1` ?
# output false

# input Does %High-spin (percent of heme iron in high-spin state) meet or surpass 70% for `COc1ccc(C(C)=O)cc1` ?
# output false

New cases:
# input Does %High-spin (percent of heme iron in high-spin state) meet or surpass 70% for COc1ccc(C(=O)O)cc1OC [Veratrate, veratrate] ?
# output true

# input Does %High-spin (percent of heme iron in high-spin state) meet or surpass 70% for COc1ccc(C(=O)O)cc1 [p-MBA, p-methoxybenzoate] ?
# output true

###

# EXPERIMENTAL_SYSTEM: PbdA (Rhodococcus jostii, UniProt Q0SCI3)
# CONDITION_PARAMETERS: WT PbdAB; air-saturated MOPS (I = 0.1 M), pH 7.2, 25 °C; SD in parentheses
Record form. Attribute: NADH depletion rate. Fill in for each entry.

Solved entries (count: 5):
# input // fetch NADH depletion rate given entry `COc1ccc(C(C)=O)cc1`
# output 117 (6) U mg P450^-1

# input // fetch NADH depletion rate given entry COc1ccc(C(=O)O)cc1O [Isovanillate, isovanillate]
# output 2200 (200) U mg P450^-1

# input // fetch NADH depletion rate given entry COc1ccc(C(=O)O)cc1OC [Veratrate, veratrate]
# output 2830 (50) U mg P450^-1

# input // fetch NADH depletion rate given entry COc1ccc(C(=O)O)cc1 [p-MBA, p-methoxybenzoate]
# output 2700 (100) U mg P450^-1

# input // fetch NADH depletion rate given entry `COc1ccc(C=O)cc1`
# output 140 (30) U mg P450^-1

# context switch: different compound, same NADH depletion rate
# input // fetch NADH depletion rate given entry CCc1ccc(C(=O)O)cc1 [p-EB, p-ethylbenzoate]
# output 830 (80) U mg P450^-1
